Values from patent US20210388087A1

# Target desc: T1, CD3 epsilon homodimer protein (UniProt P07766 23-126)
# T1 construct: also called CD3 (CD3 epsilon)
# T1 sequence (P07766 23-126): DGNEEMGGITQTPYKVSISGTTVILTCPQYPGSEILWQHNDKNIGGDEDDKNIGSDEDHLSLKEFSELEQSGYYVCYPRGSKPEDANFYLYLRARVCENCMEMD
# Experiment description: SPR, antibody over immobilised CD3e homodimer;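 further: SPR at 25 °C with CD3 epsilon homodimer amine-coupled to a CM4 sensor chip and antibody flowed over as analyte in HBS-EP+ running buffer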
Collected KD ratio to GLS3000 values appear next to each entry.
Answer using only a numeral; do not append any unit.

Worked cases, KD ratio to GLS3000 given:
>>> value("CE115HA000/GLS3000 V27cL (antibody, IgG1, name in Kabat numbering, V domains shown, one-arm IgG1) VH: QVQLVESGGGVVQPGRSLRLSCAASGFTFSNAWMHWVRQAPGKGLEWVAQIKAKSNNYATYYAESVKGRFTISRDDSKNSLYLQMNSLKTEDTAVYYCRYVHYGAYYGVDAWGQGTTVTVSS VL: DIVMTQSPLSLPVTPGEPASISCRSSQSLLHSNRNTYLHWYQQKPGQAPRLLIYKVSNRFSGVPDRFSGSGSGTDFTLKISRVEAEDVGVYYCGQGTQVPYTFGQGTKLEIK")
0.81
>>> value("CE115HA000/GLS3000 H34I (antibody, IgG1, name in Kabat numbering, V domains shown, one-arm IgG1) VH: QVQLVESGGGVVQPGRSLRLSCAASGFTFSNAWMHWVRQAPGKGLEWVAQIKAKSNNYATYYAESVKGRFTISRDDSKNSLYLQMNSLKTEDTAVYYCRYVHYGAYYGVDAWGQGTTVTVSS VL: DIVMTQSPLSLPVTPGEPASISCRSSQSLVHSNRNTYLIWYQQKPGQAPRLLIYKVSNRFSGVPDRFSGSGSGTDFTLKISRVEAEDVGVYYCGQGTQVPYTFGQGTKLEIK")
0.89
>>> value("CE115HA000/GLS3000 R54A (antibody, IgG1, name in Kabat numbering, V domains shown, one-arm IgG1) VH: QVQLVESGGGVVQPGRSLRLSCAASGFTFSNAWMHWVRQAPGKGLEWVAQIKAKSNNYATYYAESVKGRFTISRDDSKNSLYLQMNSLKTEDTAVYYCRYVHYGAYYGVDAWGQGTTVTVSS VL: DIVMTQSPLSLPVTPGEPASISCRSSQSLVHSNRNTYLHWYQQKPGQAPRLLIYKVSNAFSGVPDRFSGSGSGTDFTLKISRVEAEDVGVYYCGQGTQVPYTFGQGTKLEIK")
0.85
>>> value("CE115HA000/GLS3000 L27bV (antibody, IgG1, name in Kabat numbering, V domains shown, one-arm IgG1) VH: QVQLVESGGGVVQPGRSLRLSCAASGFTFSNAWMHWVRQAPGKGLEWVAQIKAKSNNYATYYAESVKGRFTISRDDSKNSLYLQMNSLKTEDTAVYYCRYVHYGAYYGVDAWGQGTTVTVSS VL: DIVMTQSPLSLPVTPGEPASISCRSSQSVVHSNRNTYLHWYQQKPGQAPRLLIYKVSNRFSGVPDRFSGSGSGTDFTLKISRVEAEDVGVYYCGQGTQVPYTFGQGTKLEIK")
1.11
>>> value("CE115HA000/GLS3000 V94E (antibody, IgG1, name in Kabat numbering, V domains shown, one-arm IgG1) VH: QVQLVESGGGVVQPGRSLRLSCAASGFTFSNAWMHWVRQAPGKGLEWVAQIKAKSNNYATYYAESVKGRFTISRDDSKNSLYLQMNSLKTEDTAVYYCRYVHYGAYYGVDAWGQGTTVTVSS VL: DIVMTQSPLSLPVTPGEPASISCRSSQSLVHSNRNTYLHWYQQKPGQAPRLLIYKVSNRFSGVPDRFSGSGSGTDFTLKISRVEAEDVGVYYCGQGTQEPYTFGQGTKLEIK")
1.18
>>> value("CE115HA000/GLS3000 R24Y (antibody, IgG1, name in Kabat numbering, V domains shown, one-arm IgG1) VH: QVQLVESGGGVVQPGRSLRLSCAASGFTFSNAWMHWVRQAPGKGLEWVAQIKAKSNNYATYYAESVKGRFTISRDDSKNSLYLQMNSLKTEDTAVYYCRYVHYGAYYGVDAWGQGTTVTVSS VL: DIVMTQSPLSLPVTPGEPASISCYSSQSLVHSNRNTYLHWYQQKPGQAPRLLIYKVSNRFSGVPDRFSGSGSGTDFTLKISRVEAEDVGVYYCGQGTQVPYTFGQGTKLEIK")
0.94
>>> value("CE115HA000/GLS3000 K50S (antibody, IgG1, name in Kabat numbering, V domains shown, one-arm IgG1) VH: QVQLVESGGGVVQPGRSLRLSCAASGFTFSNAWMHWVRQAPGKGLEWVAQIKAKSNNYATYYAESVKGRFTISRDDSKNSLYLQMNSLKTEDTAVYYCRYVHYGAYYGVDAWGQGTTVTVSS VL: DIVMTQSPLSLPVTPGEPASISCRSSQSLVHSNRNTYLHWYQQKPGQAPRLLIYSVSNRFSGVPDRFSGSGSGTDFTLKISRVEAEDVGVYYCGQGTQVPYTFGQGTKLEIK")
45.3
>>> value("CE115HA000/GLS3000 L27bI (antibody, IgG1, name in Kabat numbering, V domains shown, one-arm IgG1) VH: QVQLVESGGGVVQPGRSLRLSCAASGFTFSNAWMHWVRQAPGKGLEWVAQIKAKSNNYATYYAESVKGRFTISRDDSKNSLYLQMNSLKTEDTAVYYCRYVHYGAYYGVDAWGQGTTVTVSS VL: DIVMTQSPLSLPVTPGEPASISCRSSQSIVHSNRNTYLHWYQQKPGQAPRLLIYKVSNRFSGVPDRFSGSGSGTDFTLKISRVEAEDVGVYYCGQGTQVPYTFGQGTKLEIK")
1.17
>>> value("CE115HA000/GLS3000 S27eP (antibody, IgG1, name in Kabat numbering, V domains shown, one-arm IgG1) VH: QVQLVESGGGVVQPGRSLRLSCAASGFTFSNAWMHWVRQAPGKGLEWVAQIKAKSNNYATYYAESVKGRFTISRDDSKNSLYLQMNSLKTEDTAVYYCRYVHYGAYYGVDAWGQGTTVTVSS VL: DIVMTQSPLSLPVTPGEPASISCRSSQSLVHPNRNTYLHWYQQKPGQAPRLLIYKVSNRFSGVPDRFSGSGSGTDFTLKISRVEAEDVGVYYCGQGTQVPYTFGQGTKLEIK")
1.06

(Q) Value lookup for KD ratio to GLS3000; key = CE115HA000/GLS3000 H27dL (antibody, IgG1, name in Kabat numbering, V domains shown, one-arm IgG1) VH: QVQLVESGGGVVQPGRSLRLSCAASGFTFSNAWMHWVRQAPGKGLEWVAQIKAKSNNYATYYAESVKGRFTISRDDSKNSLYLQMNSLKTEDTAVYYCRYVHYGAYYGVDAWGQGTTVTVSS VL: DIVMTQSPLSLPVTPGEPASISCRSSQSLVLSNRNTYLHWYQQKPGQAPRLLIYKVSNRFSGVPDRFSGSGSGTDFTLKISRVEAEDVGVYYCGQGTQVPYTFGQGTKLEIK
(A) 3.37
